Assay: qHTS assay for small molecule agonists of the antioxidant response element (ARE) signaling pathway (AID 743202); as to activation: % is scaled to controls: 0 for no effect and ±100 for the full control effect
Details: HepG2 ARE-bla reporter, beta-lactamase FRET, 16 h; series mostly up to 73.3 µM
From the text: U.S. Tox21 Program National Center for Advancing Translational Sciences [NCATS] NIH Chemical Genomics Center [NCGC] U.S. Environmental Protection Agency [EPA] National Institutes of Environmental Health Sciences [NIEHS] National Toxicology Program [NTP] U.S. Food and Drug Administration [FDA] […] The activation of the report gene under culture conditions can be detected by fluorescence intensity. […]
Records with an inconclusive call do not appear. Active and inactive are the calls of the source. Calls follow the shape of the dose curve; as a rule, active = well fitted activation curve with a large enough effect in the signal ratio in the repeat runs (not every such curve was filed as active); inconclusive = weak or mixed curves, or effect the other way; inactive = no such curve, though single readings can be large or run the other way; the % refers to the signal ratio.
Outcome field: choose from active, inactive

Example entries and their recorded answers appear below.
- CC(C)=CC=O: inactive
- NC(=O)Nc1ccc(Cl)cc1: inactive
- CCCCOC(=O)CCS: inactive

Any idea what this test logged for CC(C)C(OC(=O)c1ccccc1)C(C)(C)COC(=O)c1ccccc1 (stereo not drawn) ? inactive

Any idea what this test logged for CCCCCCCCCCCC(=O)[O][Sn]([CH2]CCC)([CH2]CCC)[O]C(=O)CCCCCCCCCCC ? active

Any idea what this test logged for CCC(C(=O)OCCOCCN(CC)CC)c1ccccc1 (stereo not drawn) ? inactive

Any idea what this test logged for COC(OC)(C(=O)c1ccccc1)c1ccccc1 ? inactive

Any idea what this test logged for Cc1oncc1C(=O)Nc1ccc(C(F)(F)F)cc1 ? active

----------
Molecular target: Aryl hydrocarbon receptor (Homo sapiens) (UniProt P35869)
Sequence (P35869 whole entry, looked up): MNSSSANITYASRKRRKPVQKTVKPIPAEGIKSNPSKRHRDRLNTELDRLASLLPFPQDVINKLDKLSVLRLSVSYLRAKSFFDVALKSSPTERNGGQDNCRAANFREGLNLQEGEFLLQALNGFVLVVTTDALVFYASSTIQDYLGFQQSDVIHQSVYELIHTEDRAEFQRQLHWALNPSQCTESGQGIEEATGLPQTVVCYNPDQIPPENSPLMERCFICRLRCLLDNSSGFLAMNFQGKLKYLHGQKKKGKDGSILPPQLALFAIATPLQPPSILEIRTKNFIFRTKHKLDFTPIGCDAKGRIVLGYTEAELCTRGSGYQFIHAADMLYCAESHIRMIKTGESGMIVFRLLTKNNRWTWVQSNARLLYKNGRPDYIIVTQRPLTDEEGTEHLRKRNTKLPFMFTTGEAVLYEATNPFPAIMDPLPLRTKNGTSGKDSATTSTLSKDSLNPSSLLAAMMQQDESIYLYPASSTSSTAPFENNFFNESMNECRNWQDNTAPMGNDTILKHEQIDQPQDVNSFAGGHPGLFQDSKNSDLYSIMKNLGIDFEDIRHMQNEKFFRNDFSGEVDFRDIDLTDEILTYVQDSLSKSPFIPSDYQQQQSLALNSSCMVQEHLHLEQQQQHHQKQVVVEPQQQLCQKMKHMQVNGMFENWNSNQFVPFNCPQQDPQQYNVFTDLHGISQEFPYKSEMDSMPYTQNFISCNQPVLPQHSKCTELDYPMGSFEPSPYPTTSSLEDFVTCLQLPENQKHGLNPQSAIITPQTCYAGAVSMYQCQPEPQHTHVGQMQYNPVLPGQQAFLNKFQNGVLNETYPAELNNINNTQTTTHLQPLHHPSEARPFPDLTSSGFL
Assay: qHTS assay to identify small molecule that activate the aryl hydrocarbon receptor (AhR) signaling pathway (AID 743085); also: nearly all actives have a fitted effect of over 15% in size;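 as to activation: HG2L7.5c1 human HepG2 liver cells with stably integrated DRE-driven firefly reporter; % is scaled to controls: 0 for no effect and ±100 for the full control effect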
Conditions: HepG2 AhR-luc (HG2L7.5c1), luciferase, 24 h; series mostly up to 70.3 µM
Text: U.S. Tox21 Program National Center for Advancing Translational Sciences [NCATS] NIH Chemical Genomics Center [NCGC] U.S. Environmental Protection Agency [EPA] National Institutes of Environmental Health Sciences [NIEHS] National Toxicology Program [NTP] U.S. Food and Drug Administration [FDA] Tox21 Assay overview: The Aryl hydrocarbon Receptor (AhR), a member of the family of basic helix-loop-helix transcription factors, is crucial to adaptive responses to environmental changes. […]
Records with an inconclusive call do not appear. The source made the active and inactive calls. The call rests on the fitted dose curve; in most records, active means well fitted activation curve with a large enough effect in the repeat runs; inconclusive means weak or mixed curves; inactive means no such curve, though single readings can be large or run the other way.
Outcome field: choose from 1 (yes) for active, 0 (no) for inactive

Any idea what this test logged for CCCCCCCCCCOS(=O)(=O)O ? 0 (no)

Any idea what this test logged for O=c1[nH]c2ccc(S(=O)CCN3CCC(Cc4ccc(F)cc4)CC3)cc2o1 (configuration not stated) ? 0 (no)

Any idea what this test logged for O=C(NCCCN1CCOCC1)c1ccc(Cl)cc1 ? 0 (no)

Any idea what this test logged for CCCCCCCCCCCCCCCCBr ? 0 (no)

Any idea what this test logged for O=C(CCC1CCN(Cc2ccccc2)CC1)c1ccc2c(c1)NCCCC2 ? 1 (yes)

Any idea what this test logged for COCCOC(=O)C1=C(C)NC(C)=C(C(=O)OC/C=C/c2ccccc2)C1c1cccc([N+](=O)[O-])c1 (configuration not stated) ? 1 (yes)

Any idea what this test logged for CCCCCCCCSCCO ? 0 (no)

----------
test: qHTS assay to identify small molecule antagonists of the sonic hedgehog signaling (Shh) pathway - cell viability counter screen (AID 1259367); conditions: NIH/3T3 Gli1-Luc viability, CellTiter-Fluor, 24 h; series mostly up to 92.4 µM; also: nearly all actives have a fitted effect of over 55% in size; also: potency is read from the fitted curve at half-maximal effect
Results filed as inconclusive are left out. Calls of active or inactive are those of the source. Calls follow the shape of the dose curve; as a rule, active = well fitted cell-killing curve with a large enough effect in the repeat runs; inconclusive = weak or mixed curves, or effect the other way; inactive = no such curve, though single readings can be large or run the other way.
reportedProperty: Potency

Worked examples, 10 molecules total:
- O=C(/C=C/c1ccccc1)OCCCc1ccccc1: inactive
- CO[C@H]1O[C@H](CO)[C@@H](O)[C@H](O)[C@H]1O: inactive
- C[Si]1(C)O[Si](C)(C)O[Si](C)(C)O1: inactive
- CCC(C)(O)CCC=C(C)C (stereo unspecified): inactive
- CN(C)CCOC1=Cc2ccccc2Sc2ccc(Cl)cc21: inactive
- NC(=O)Nc1ccc(Cl)c(Cl)c1: inactive
- Nc1c(I)cc(I)c(C(=O)N(CCC(=O)O)c2ccccc2)c1I: inactive
- CC(=O)Oc1ccc2c(c1)CC[C@@H]1[C@@H]2CC[C@]2(C)[C@@H](O)CC[C@@H]12: inactive
- CC(=O)Nc1ccc(N)cc1: inactive
- CO[C@H]1C=CO[C@@]2(C)Oc3c(C)c(O)c4c(O)c(c5c(c4c3C2=O)=NC2(CCN(CC(C)C)CC2)N=5)NC(=O)/C(C)=C\C=C/[C@H](C)[C@H](O)[C@@H](C)[C@@H](O)[C@@H](C)[C@H](OC(C)=O)[C@@H]1C: 23.8 µM (active)

Take each entry in turn and give its Potency.
1. C1COCO1
2. Oc1ccc(Nc2ccccc2)cc1
3. CCCCC(=O)O[C@]1(C(=O)CO)CC[C@H]2[C@@H]3CCC4=CC(=O)CC[C@]4(C)[C@H]3[C@@H](O)C[C@@]21C
4. Nc1nc(Cl)nc2c1ncn2[C@@H]1O[C@H](CO)[C@@H](O)[C@@H]1F
5. C(=C\c1ccccc1)/CN1CCN(C(c2ccccc2)c2ccccc2)CC1

inactive
inactive
inactive
inactive
inactive

Measured values drawn from PubChem BioAssay (Tox21) for this set.
